target: DDR1 (Homo sapiens, UniProt Q08345); assay: Degradation of DDR1 in tumor cell MKN45 (Western blot); type: cell-based; set-up: The degradation activity of the compounds against DDR1 in the MKN45 cell line; endogenous in cells; host or cells: MKN45; settings: MKN-45, maximum degradation percentage, MKN45 cells, 24 hours
Sequence (Q08345 19-913): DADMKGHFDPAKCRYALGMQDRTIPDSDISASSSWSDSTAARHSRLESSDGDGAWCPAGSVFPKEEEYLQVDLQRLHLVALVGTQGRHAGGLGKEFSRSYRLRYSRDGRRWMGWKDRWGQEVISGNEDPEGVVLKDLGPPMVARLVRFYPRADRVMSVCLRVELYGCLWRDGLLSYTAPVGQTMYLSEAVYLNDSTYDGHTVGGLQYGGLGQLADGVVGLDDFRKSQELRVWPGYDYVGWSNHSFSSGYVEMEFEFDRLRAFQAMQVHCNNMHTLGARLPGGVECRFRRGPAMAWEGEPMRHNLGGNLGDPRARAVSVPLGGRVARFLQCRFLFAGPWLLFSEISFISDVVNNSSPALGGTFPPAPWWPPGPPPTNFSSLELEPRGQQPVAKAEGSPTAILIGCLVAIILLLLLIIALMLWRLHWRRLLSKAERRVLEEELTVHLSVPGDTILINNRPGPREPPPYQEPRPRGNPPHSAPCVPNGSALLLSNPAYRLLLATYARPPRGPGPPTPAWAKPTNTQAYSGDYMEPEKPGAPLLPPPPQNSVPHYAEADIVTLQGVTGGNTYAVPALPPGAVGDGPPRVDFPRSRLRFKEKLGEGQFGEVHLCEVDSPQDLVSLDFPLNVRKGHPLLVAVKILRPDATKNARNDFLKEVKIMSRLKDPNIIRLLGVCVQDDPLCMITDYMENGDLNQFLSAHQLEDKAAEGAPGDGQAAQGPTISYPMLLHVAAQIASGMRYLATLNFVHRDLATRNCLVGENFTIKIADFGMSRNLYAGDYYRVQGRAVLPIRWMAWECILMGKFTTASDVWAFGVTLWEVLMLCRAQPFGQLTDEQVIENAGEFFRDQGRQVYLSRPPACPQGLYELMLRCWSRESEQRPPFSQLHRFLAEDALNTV
The entries below come with measured Dmax values attached.

Previously resolved entries follow.
COc1cc2c(Oc3ccc(NC(=O)C4(C(=O)Nc5ccc(F)cc5)CC4)cc3)ccnc2cc1N1CCC(CN2CCC(C(=O)N[C@H](C(=O)N3C[C@H](O)C[C@H]3C(=O)NCc3ccc(-c4scnc4C)cc3)C(C)(C)C)CC2)CC1 [TPD5402b]    65 to 75%
N#Cc1cccc(-c2ccc(=O)n(Cc3cccc(-c4ncc(OCC5CCN(CCC(=O)Nc6cccc7c6CN(C6CCC(=O)NC6=O)C7=O)CC5)cn4)c3)n2)c1 (stereo not shown) [TPD10013]    65 to 75%
O=C1CCC(N2Cc3cc(NC(=O)CCN4CC5CC(C4)N5CC4CCN(c5cc6nccc(Oc7ccc(NC(=O)C8(C(=O)Nc9ccc(F)cc9)CC8)cc7)c6cc5F)CC4)ncc3C2=O)C(=O)N1 (stereo not shown) [TPD12162]    65 to 75%

Next molecule, Dmax to be filled in.
Quick check: Dmax of Cc1ncsc1-c1ccc(CNC(=O)[C@@H]2C[C@@H](O)CN2C(=O)[C@@H](NC(=O)CN2CCN(CC3CCN(C(=O)c4ccc(-c5cnc6ncc(Cc7ccc8ncccc8c7)n6n5)cc4F)CC3)CC2)C(C)(C)C)cc1 [TPD9004] ?
75 to 85%
